Target: T1, cyno TF ECD-His (cTF-his) (monkey (cyno))
T1 construct: also called bio-cTF-his; monkey TF-His protein
T1 chain: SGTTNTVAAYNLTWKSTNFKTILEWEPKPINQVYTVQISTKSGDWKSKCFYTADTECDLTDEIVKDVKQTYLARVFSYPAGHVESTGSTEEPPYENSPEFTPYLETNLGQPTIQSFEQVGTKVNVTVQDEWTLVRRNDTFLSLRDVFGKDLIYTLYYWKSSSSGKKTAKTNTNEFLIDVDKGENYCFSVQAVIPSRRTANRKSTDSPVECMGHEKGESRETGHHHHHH
Assay: SPR Biacore T200, antibody on Protein A chip, TF-His as analyte, 1:1 model
pKd: −log10 of the molar value.

BINDER: hu67-7 (antibody, human IgG1, kappa, V domains shown) VH: EVQLQESGPGLVKPSQTLSLTCTVSGFSLTNYGVNWIRQPPGKGLEWIGVIWSRGNTDYNAAFISRVTISKDTSKNQVSLKLSSVTAADTAVYYCARKDAVVATDALDYWGQGTTVTVSS VL: DIVMTQSPKSLAVSLGERATINCKASQDVSTAVAWYQQKPGQSPKLLIYSTSYRYTGVPDRFSGSGSGTDFTFTISSLQAEDVAVYYCQQHYSTPYTFGGGTKVEIKR
pKd: 7.98
//
BINDER: hu67-14 (antibody, human IgG1, kappa, V domains shown) VH: EVTLKQSGPVLVKPTQTLTLTCTVSGFSLTNYGVNWIRQPPRKGLEWLGVIWSRGNTDYNAAFISRLTISKDNSKSQVVLKMTNMDPVDTATYYCARKDAVVATDALDYWGQGTTVTVSS VL: DIQMTQSHKFLSASVGDRVTITCKASQDVSTAVAWYQQKPGKSPKLLIYSTSYRYTGVPSRFSGSGSGTDFTFTISSLQPEDIATYYCQQHYSTPYTFGGGTKVEIKR
pKd: 7.89
//
BINDER: hu10H10-29 (antibody, V domains shown, H11+L1; Full-length IgG) VH: EVQLVQSGSELKKPGASVKVSCKASGYTFITYWIEWVKQRPGQGLEWMGDILPYSGSTNYNENFKGRATFSADTSVSTAYLQISSLKAEDTAVYYCARSGYYGNSGFAYWGQGTLVTVSS VL: DIQMTQSPSSLSASVGDRVTITCKSSQSLLSSGNQKNYLTWYQQKPGKAPKLLIYWASTRESGVPSRFSGSGSGTDFTLTISSLQPEDFATYYCQNDYTYPLTFGQGTKLEIK
pKd: 9.19
//
BINDER: chimeric antibody CH310 (antibody, human IgG1, kappa, V domains shown, Murine 310# variable regions + human constant regions) VH: EVQLQQSGPELVKPGASLKISCKASGYSFTGYYMNWVKQSPEKSLEWIGEINPSTGGSTYNQKFKAKATLTVDQSSNTAYMQLKSLTSEDSAVYYCARRELGGPFGYWGQGTPVTVSA VL: SIVMTQTPKFLLVSSGDRVTITCKASQSVSNGIAWYQQKPGQSPKLLIYFASNRYTGVPDRFTGSGYGTDFTFTISTVQAEDLAVYFCQQDYSSPWTFGGGTKLEIKR
pKd: 7.63

Provenance of the data: patent EP4703388A1
